biological target: recombinant human NF-kappaB-inducing kinase (NIK/MAP3K14) (Homo sapiens); test: Inhibition of auto-phosphorylation of recombinant human NIK/MAP3K14 activity (AlphaScreen), Biological Assay A; type: biochemical; details: averaged values over all measurements on all batches
Sequence (Q99558 whole entry): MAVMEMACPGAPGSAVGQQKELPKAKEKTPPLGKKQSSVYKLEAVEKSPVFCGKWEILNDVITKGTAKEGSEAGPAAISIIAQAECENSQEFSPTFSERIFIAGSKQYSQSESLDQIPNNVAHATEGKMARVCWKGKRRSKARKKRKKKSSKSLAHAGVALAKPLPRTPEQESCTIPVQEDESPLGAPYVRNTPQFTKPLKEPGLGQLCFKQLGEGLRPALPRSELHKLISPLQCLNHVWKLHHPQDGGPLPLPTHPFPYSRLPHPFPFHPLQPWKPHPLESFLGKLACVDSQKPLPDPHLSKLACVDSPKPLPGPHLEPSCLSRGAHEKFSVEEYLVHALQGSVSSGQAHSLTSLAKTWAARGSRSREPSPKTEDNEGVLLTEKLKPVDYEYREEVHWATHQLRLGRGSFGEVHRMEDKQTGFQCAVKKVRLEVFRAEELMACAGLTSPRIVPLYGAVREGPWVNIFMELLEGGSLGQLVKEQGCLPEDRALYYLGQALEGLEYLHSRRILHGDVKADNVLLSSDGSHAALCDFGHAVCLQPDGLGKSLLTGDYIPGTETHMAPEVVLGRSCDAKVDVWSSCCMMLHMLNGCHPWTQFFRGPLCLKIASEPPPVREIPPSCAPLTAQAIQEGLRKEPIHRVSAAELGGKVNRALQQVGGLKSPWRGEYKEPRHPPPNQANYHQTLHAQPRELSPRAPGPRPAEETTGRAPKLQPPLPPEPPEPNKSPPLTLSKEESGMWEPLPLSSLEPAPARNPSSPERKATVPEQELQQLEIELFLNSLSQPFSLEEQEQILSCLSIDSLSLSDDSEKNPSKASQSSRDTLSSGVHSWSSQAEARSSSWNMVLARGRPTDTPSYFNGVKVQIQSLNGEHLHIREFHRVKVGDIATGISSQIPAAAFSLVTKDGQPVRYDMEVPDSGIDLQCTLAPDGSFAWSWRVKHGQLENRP
Threshold 5 nM. IC50 below it: label 1. IC50 at it or above: label 0.

Say whether its IC50 is strictly beneath 5 nM. Entry: `Cc1c(CN2CC(F)(F)C2)cc(C#N)cc1Nc1nccc(-c2cc(C#N)c3c(c2)[C@@](C)(CO)CN3)n1`
label 0

Say whether its IC50 is strictly beneath 5 nM. Entry: `COc1cc(C(=O)NC2CC(F)(F)C2)c(Cl)cc1Nc1nccc(-c2cc(C#N)c3c(c2)C(C)(C)CN3)n1`
label 0

Say whether its IC50 is strictly beneath 5 nM. Entry: `[2H]C([2H])(O)c1cc(Nc2nccc(-c3cc(C#N)c4c(c3)[C@@](C)(CO)CN4)n2)c(C)cc1F`
label 1

Say whether its IC50 is strictly beneath 5 nM. Entry: CN1CCC(Oc2ccc(Nc3nccc(-c4cc(C#N)c5c(c4)C(C)(CO)CN5)n3)cc2C(F)(F)F)CC1 (stereo not shown)
label 1

Say whether its IC50 is strictly beneath 5 nM. Entry: `CCC(=O)NCCCc1cc(C)c(Nc2nccc(-c3cc(C#N)c4c(c3)[C@@](C)(CO)CN4)n2)cc1C#N`
label 1

Say whether its IC50 is strictly beneath 5 nM. Entry: `Cc1c(NC(=O)C2CCN(C)CC2)cc(Cl)cc1Nc1nccc(-c2cc(C#N)c3c(c2)[C@@](C)(CO)CN3)n1`
label 1

Say whether its IC50 is strictly beneath 5 nM. Entry: Cc1cc(C2CCCN(C)C2)c(C#N)cc1Nc1nccc(-c2cc(C#N)c3c(c2)[C@@](C)(CO)CN3)n1 (stereo partly shown) [Compound 179]
label 1
